- Test system: SKOV3 ovarian cancer cell line
- protocol.description: MTT assay, growth inhibition of SKOV3 ovarian cancer cell line
- Type: cell-based
- condition.details: positive control drug; cell line not stated (SKOV3 and A2780 tested, FIG. 27)
quantity.kind: IC50 (µM)

compound | units.symbol | measured
N.N.[Cl][Pt][Cl] [cisplatin] | µM | 100
